These measurements were taken from PubChem BioAssay AID485364.

Tested system: Schistosoma mansoni thioredoxin glutathione reductase (TGR)
Method summary: qHTS Assay for the Inhibitors of Schistosoma Mansoni Peroxiredoxins; also: nearly all actives have a fitted effect of over 60% in size
Study conditions: purified TGR, DTNB reduction, TNB absorbance 405 nm; series mostly up to 114 µM
Source text: Schistosomiasis is a major neglected tropical disease that currently affects over 200 million. It is caused by different species of flatworms, such as Schistosoma mansoni. […] In addition, the fluorescence assay was also subject to fluorescence interference from compound library members. […] The assay followed the reduction of 5, 5'-dithiobis (2-nitrobenzoic acid) (DTNB) (Ellman's reagent) by NADPH and measured the increase in absorbance at 412 nm of the reaction product, TNB. […]
The campaign covered roughly 360,000 compounds. About 11,000 (3.1%) were called active. Roughly 4% stayed inconclusive and do not appear here. Calls follow the shape of the dose curve; as a rule, active = well fitted inhibition curve with a large enough effect; inconclusive = small, poorly fitted or top-dose-only effect; inactive = no such curve, though single readings can be large or run the other way. For the sample, actives were picked, then their nearest neighbours and some compounds at random.
Labels: yes (1) for active, no (0) for inactive

{"columns": ["Compound", "Class label"],
 "data": [
  ["O=C(NCc1ccco1)c1cnn2c(C(F)(F)F)cc(-c3ccco3)nc12", "yes (1)"],
  ["COc1ccc(-c2nc3ccc(C(=O)NCc4ccc(C)cc4)cc3nc2-c2ccc(OC)cc2)cc1", "no (0)"],
  ["COc1ccc(Cl)cc1S(=O)(=O)N1CCN(CC(=O)C(C)(C)C)CC1", "no (0)"],
  ["CCN1CC(CN(C)Cc2nc(-c3ccc(Cl)cc3)no2)CC1=O (stereo unspecified)", "no (0)"],
  ["NS(=O)(=O)c1cccc(NC(=O)COC(=O)/C=C/c2ccco2)c1", "yes (1)"],
  ["COc1ccc(NC(=O)CN(C)C(=O)c2n[nH]c3ccccc23)cc1", "no (0)"],
  ["CCOC(=O)c1cc(-c2ccc(OC)c(S(=O)(=O)Nc3ccc(OC)cc3OC)c2)on1", "no (0)"],
  ["FC(F)(F)c1cc(Nc2nc3ccccc3c3nncn23)ccc1Cl", "no (0)"],
  ["O=C(CC1C(=O)NCCN1Cc1ccc(-c2ccccc2)cc1)NCC1CCOCC1 (stereo unspecified)", "no (0)"],
  ["Cc1cccc(S(=O)(=O)c2cn(Cc3ccccc3)c3cc(N4CCOCC4)c(F)cc3c2=O)c1", "no (0)"],
  ["Cc1cccc(-n2c(O)c(/C=N/N3CCOCC3)c(=O)[nH]c2=S)c1", "no (0)"],
  ["CC(C)CNC(=O)COC(=O)/C=C/c1ccco1", "no (0)"],
  ["CN(C)S(=O)(=O)c1cccc(NC(=O)COC(=O)/C=C/c2cccs2)c1", "no (0)"],
  ["CC(C)N(Cc1nnc(-c2ccccc2Br)o1)C(=O)c1cc(Cl)nc2ccccc12", "no (0)"],
  ["Cn1c(=O)c(=O)n(C)c2cc(NC(=O)c3ccccc3Br)ccc21", "no (0)"],
  ["O=S(=O)(c1cc(Cl)ccc1Cl)N1CCN(Cc2ccco2)CC1", "no (0)"],
  ["CC(C)c1ccc(NC(=O)c2cc(S(=O)(=O)N3CCc4ccccc4C3)ccc2F)cc1", "no (0)"],
  ["COc1ccc(OC)c(NC(=O)CN2CCCN(Cc3cc(C)ccc3C)S2(=O)=O)c1", "no (0)"],
  ["Cc1cc(C)cc(NC(=O)CSc2oc(-c3ccccc3)nc2S(=O)(=O)c2ccc(Cl)cc2)c1", "no (0)"],
  ["Cc1ccc(NC(=O)CSc2nc3ccccc3c3nc(CCn4cncc4C)nn23)cc1F", "no (0)"],
  ["COc1ccccc1CNc1nccn(-c2ccc(F)cc2)c1=O", "no (0)"],
  ["Cn1c(COc2ccccc2C(C)(C)C)nc2ccccc21", "no (0)"],
  ["COc1ccc(CNc2nc(-c3ccccc3)nn2C(=O)c2ccccc2OC)cc1", "no (0)"],
  ["O=C(O)c1cnn2c(C(F)(F)F)cc(-c3ccccc3)nc12", "no (0)"],
  ["CN(CC(=O)Nc1cccc(C(F)(F)F)c1)S(=O)(=O)c1cccs1", "no (0)"],
  ["Cc1ccc(NC(=O)c2oc3ccc(S(=O)(=O)N4CCCCC4)cc3c2C)cc1Cl", "no (0)"],
  ["COc1ccc(NC(=O)CN(C)C(=O)c2cc(-c3ccc(C)o3)nc3ccccc23)cc1", "yes (1)"],
  ["O=C(CN1CCN(S(=O)(=O)c2cc(Cl)ccc2Cl)CC1)c1ccc(O)c(O)c1", "yes (1)"],
  ["Cc1cccc(-n2c(O)c(C=NC34CN5CN(CN(C5)C3)C4)c(=O)[nH]c2=O)c1", "yes (1)"],
  ["Cc1cccc(-n2c(O)c(C=Nc3ccccc3N)c(=O)[nH]c2=O)c1", "no (0)"],
  ["COc1ccc(-c2cc(C(=O)N(C)CC(=O)Nc3ccccc3Cl)c3ccccc3n2)cc1OC", "no (0)"],
  ["CN(Cc1ccccc1)C(=O)c1cn(C)c2ccc(S(=O)(=O)N3CCCCC3)cc2c1=O", "no (0)"],
  ["COc1ccccc1CNC(=O)Cn1nc(C)c2nn(-c3ccc(Cl)cc3)c(C)c2c1=O", "no (0)"],
  ["COc1ccccc1C(=O)NCCn1cc(SCc2ccccc2Cl)c2ccccc21", "no (0)"],
  ["O=C(NCc1ccco1)c1ccc([N+](=O)[O-])cc1Cl", "no (0)"],
  ["CCOC(=O)c1c(S(=O)(=O)NCC(=O)Nc2ccc(Cl)c(C(F)(F)F)c2)c(C)n(C)c1C", "no (0)"],
  ["COc1ccc(/C=C/C(=O)OCC(=O)Nc2cccc(Oc3ccccc3)c2)c(OC)c1", "no (0)"],
  ["N#CC1=C(N)C(C#N)(C#N)[C@H](c2ccsc2)[C@H]2COCC=C12", "yes (1)"],
  ["CCOc1ccc(N2C(=O)CN(c3cccc4ccccc34)C2=S)cc1", "no (0)"],
  ["CCN(CC)C(=O)CSc1nc2cc3c(cc2c(=O)n1CCCC(=O)NCc1ccc2c(c1)OCO2)OCO3", "no (0)"],
  ["CCCC12CN3CC(C)(CN(C1)C3c1ccccc1Cl)C2=O (stereo unspecified)", "no (0)"]
]}
